The reported numbers originate from patent US20240190849A1.

Target: FGFR3 (V555M) (Homo sapiens, UniProt P22607, V555M)
Construct: made in house; host or cells: E. coli derived from BL21, infected with T7 phage
Sequence (P22607 23-806 V555M): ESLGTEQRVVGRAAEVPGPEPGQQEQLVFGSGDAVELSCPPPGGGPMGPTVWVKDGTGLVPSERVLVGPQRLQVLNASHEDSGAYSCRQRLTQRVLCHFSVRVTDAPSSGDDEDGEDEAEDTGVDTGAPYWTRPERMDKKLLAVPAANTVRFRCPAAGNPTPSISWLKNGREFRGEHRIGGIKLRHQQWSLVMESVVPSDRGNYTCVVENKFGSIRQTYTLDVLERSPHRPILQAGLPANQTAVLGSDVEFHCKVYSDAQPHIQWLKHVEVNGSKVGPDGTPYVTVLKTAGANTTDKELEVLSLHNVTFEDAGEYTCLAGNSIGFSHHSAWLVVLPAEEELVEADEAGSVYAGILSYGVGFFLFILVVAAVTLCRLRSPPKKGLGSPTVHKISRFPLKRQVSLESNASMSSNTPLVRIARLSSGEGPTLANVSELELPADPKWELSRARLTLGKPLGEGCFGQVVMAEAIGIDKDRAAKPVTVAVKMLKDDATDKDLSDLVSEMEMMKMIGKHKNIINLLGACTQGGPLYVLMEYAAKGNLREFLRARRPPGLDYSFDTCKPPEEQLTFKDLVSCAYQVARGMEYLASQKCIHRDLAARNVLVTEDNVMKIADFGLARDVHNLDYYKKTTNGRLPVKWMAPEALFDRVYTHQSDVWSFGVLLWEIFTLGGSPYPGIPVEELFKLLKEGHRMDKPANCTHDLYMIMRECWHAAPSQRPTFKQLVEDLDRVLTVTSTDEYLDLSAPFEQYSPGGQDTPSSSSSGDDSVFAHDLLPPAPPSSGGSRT
Test: Kinase binding assay (kinase-tagged T7 phage, affinity beads, qPCR readout), FGFR3 (V555M)
Details: FGFR binding data
property_label: Kd

C#CC(=O)Nc1cnc2c(c1)c(C)cn2-c1nc(Nc2ccnn2C)ncc1C
0.1 to 100 nM
C=CC(=O)Nc1ccc2c(c1)c(C)cn2-c1nc(Nc2cnn(CCOC)c2)ncc1F
0.1 to 100 nM
C=C(F)C(=O)Nc1ccc2c(c1)c(C)cn2-c1nc(Nc2ccnn2C)ncc1C
250 to 1000 nM
CCn1cc(Nc2ncc(F)c(-n3cc(C)c4cc(NC(=O)/C=C/CN(C)C)cnc43)n2)c(C)n1
100 to 250 nM
C=CC(=O)Nc1ccc2c(c1)c(C)cn2-c1nc(Nc2ccc(CN3CCN(C)CC3)c(F)c2)ncc1Cl
0.1 to 100 nM
C=CC(=O)Nc1ccc2c(c1)c(C)cn2-c1nc(Nc2cn(CC(C)(C)O)nc2C)ncc1F
0.1 to 100 nM
C=CC(=O)Nc1ccc2c(-c3nc(Nc4ccc(OC)c(OC)c4)ncc3Cl)cn(C)c2c1
0.1 to 100 nM
C=CC(=O)Nc1ccc2c(c1)c(C)cn2-c1nc(Nc2ccc(OC)c(OC)c2)ncc1Cl
0.1 to 100 nM
C=CC(=O)Nc1ccc2c(c1)c(C)cn2-c1nc(Nc2ccc(CN3CCOCC3)c(F)c2)ncc1Cl
0.1 to 100 nM
C=CC(=O)Nc1ccc2c(c1)c(C)cn2-c1nc(Nc2cccnc2F)ncc1F
0.1 to 100 nM
Cc1cn(-c2nc(Nc3cnn(C[C@@H](C)O)c3)ncc2F)c2ncc(NC(=O)/C=C/CN(C)C)cc12
0.1 to 100 nM
CC#CC(=O)Nc1ccc2c(-c3ccnc(Nc4cnn(CCO)c4)n3)cn(C)c2c1
250 to 1000 nM
C=CC(=O)Nc1ccc2c(ccn2-c2nc(Nc3ccc(N4CCOCC4)cc3OCC)ncc2Cl)c1
> 1000 nM
Cc1cnc(Nc2cnn(CCO)c2)nc1-n1cc(C)c2cc(NC(=O)/C=C/CN(C)C)ccc21
0.1 to 100 nM
C=CC(=O)Nc1ccc2c(c1)c(C)cn2-c1nc(Nc2cnn(C)c2C)ncc1F
0.1 to 100 nM
C=CC(=O)Nc1ccc2c(c1)c(C)cn2-c1nc(Nc2cnn(CC(C)OC)c2)ncc1F (centres unmarked)
0.1 to 100 nM
C=CC(=O)Nc1ccc2c(c1)c(C)cn2-c1nc(Nc2cn(C)nc2C)ncc1Cl
0.1 to 100 nM
C=CC(=O)Nc1ccc2c(c1)c(C)cn2-c1nc(Nc2cnn(C3CCOC3)c2)ncc1F (centres unmarked)
0.1 to 100 nM
C=CC(=O)Nc1ccc2c(-c3ccnc(Nc4cn(CC)nc4C)n3)cn(C)c2c1
0.1 to 100 nM
C=CC(=O)Nc1cnc2c(c1)c(C)cn2-c1nc(Nc2cc(C)n(C(=O)OC(C)(C)C)n2)ncc1C
0.1 to 100 nM
C=CC(=O)Nc1ccc2c(c1)c(C)cn2-c1cc(Nc2cn(C)nc2C)nnc1C
> 1000 nM
C=CC(=O)Nc1ccc2c(c1)c(C)cn2-c1nc(Nc2ccccc2OCC)ncc1C#N
> 1000 nM
C=CC(=O)Nc1ccc2c(c1)c(CC)cn2-c1nc(Nc2cnn(C)c2)ncc1C
0.1 to 100 nM
C=CC(=O)N(C)c1ccc2c(c1)c(C)cn2-c1nc(Nc2ccnn2C)ncc1C
> 1000 nM
C=CC(=O)Nc1ccc2c(c1)c(C)cn2-c1nc(Nc2cnn(CC(C)(C)O)c2C)ncc1F
0.1 to 100 nM
C=CC(=O)Nc1cc2c(C)cn(-c3nc(Nc4ccc(N5CCOCC5)cc4)ncc3Cl)c2cc1C
100 to 250 nM
